Biological target: UspA1^(527–665), recombinant fragment of the Moraxella catarrhalis MX2 adhesin UspA1 (Moraxella catarrhalis (strain MX2))
Assay: ITC
METRIC NAME: pKd
The read-out pKd is expressed as -log10 of concentration in moles per litre.

What value of measured pKd is listed for N‐CEACAM1, the N‐terminal domain of human carcinoembryonic antigen‐related cell adhesion molecule 1 (domain or fragment) ? 7.46
